src = patent US6734190B2

targetUnderTest: B7-1/CD28 (Homo sapiens, UniProt P33681)
Sequence (P33681 35-242 limits assumed): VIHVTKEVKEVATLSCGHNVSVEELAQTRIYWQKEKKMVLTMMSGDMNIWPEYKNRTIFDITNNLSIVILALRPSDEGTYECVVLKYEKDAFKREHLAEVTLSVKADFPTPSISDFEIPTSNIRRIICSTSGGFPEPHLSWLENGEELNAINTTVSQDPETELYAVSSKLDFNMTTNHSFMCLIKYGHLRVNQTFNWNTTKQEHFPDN
assay: CD28/B7-1 ELISA (B7-1/CD28 binding inhibition)
experimentalConditions: CD28-Fc coated wells; B7-1-Fc-biotin/streptavidin-alkaline phosphatase detection complex; 1% DMSO
measurementKind: pIC50
For clarity, pIC50 is expressed as the negative log10 of concentration in mol/L.

• Cn1ncc2c3[nH]n(-c4ccc(C(N)=O)cc4)c(=O)c3c(-c3cccc(C(F)(F)F)c3)nc21 = 7.42

Next item in the queue.
Task item: If you can, please state the reported pIC50 value of Cn1ncc2c3[nH]n(-c4ccc(C(=O)N5CCOCC5)c(F)c4)c(=O)c3c(-c3cccc(C(F)(F)F)c3)nc21 .
Reply: 6.51
